- target_entity: Cyclin-dependent kinase 2/cyclin E1 (Homo sapiens)
- test: Inhibition of human recombinant CDK2/Cyclin E expressed in baculovirus infected sf9 cells using histone H1 as substrate
IC50 values, listed per item
measured_metric: IC50 (nM)

INSERT INTO assay_data (compound, measured_metric, measurement_units, measurement) VALUES
  ('NC1CCC(Nc2nc(NCc3ccc(-c4ccco4)nc3)c3ncn(C4CCCC4)c3n2)CC1 (stereo not given)', 'IC50', 'nM', 10),
  ('NC1CCC(Nc2nc(NCc3ccc(-c4ccoc4)cc3)c3ncn(C4CCCC4)c3n2)CC1 (stereo not given)', 'IC50', 'nM', 13),
  ('NC1CCC(Nc2nc(NCc3ccc(-c4ccccc4)nc3)c3ncn(C4CCCC4)c3n2)CC1 (stereo not given)', 'IC50', 'nM', 31),
  ('NC1CCC(Nc2nc(NCc3ccc(-c4ccsc4)cc3)c3ncn(C4CCCC4)c3n2)CC1 (stereo not given)', 'IC50', 'nM', 14),
  ('Nc1ccccc1-c1ccc(CNc2nc(NC3CCC(N)CC3)nc3c2ncn3C2CCCC2)cc1 (stereo not given)', 'IC50', 'nM', 20.5);

###

In this section we review reported IC50 values for a set of molecules.
- target_entity: Cyclin-dependent kinase 2/cyclin E1 (Homo sapiens)
- test: Inhibition of human recombinant CDK2/Cyclin E expressed in baculovirus infected sf9 cells using histone H1 as substrate
measured_metric: IC50 (nM)

INSERT INTO assay_data (molecule, target_entity, measurement) VALUES
  ('Nc1ccccc1CNc1nc(NC2CCC(N)CC2)nc2c1ncn2C1CCCC1 (centres undefined)', 'Cyclin-dependent kinase 2/cyclin E1 (Homo sapiens)', 18),
  ('NC1CCC(Nc2nc(NCc3ccc(-n4cccn4)cc3)c3ncn(C4CCCC4)c3n2)CC1 (centres undefined)', 'Cyclin-dependent kinase 2/cyclin E1 (Homo sapiens)', 12),
  ('OC1CCC(Nc2nc(NCc3ccc(-c4ccco4)nc3)c3ncn(C4CCCC4)c3n2)CC1 (centres undefined)', 'Cyclin-dependent kinase 2/cyclin E1 (Homo sapiens)', 23),
  ('CC(C)(O)CNc1nc(NCc2ccc(-c3ccco3)nc2)c2ncn(C3CCCC3)c2n1', 'Cyclin-dependent kinase 2/cyclin E1 (Homo sapiens)', 120);

###

- System: MCF7
- test: Cytotoxicity against human MCF7 cells assessed as growth inhibition after 72 hrs by calcein AM staining-based fluoroscence assay
- Format: functional, cell-based
- measurement_conditions: MCF7, 72 h
pIC50: −log10 of the molar value.
Listed here are molecules together with their documented pIC50.
measured_metric: pIC50

INSERT INTO measurements (molecule, measurement) VALUES
  ('Nc1ccccc1-c1ccc(CNc2nc(NC3CCC(N)CC3)nc3c2ncn3C2CCCC2)cc1 (centres undefined)', 6.01),
  ('NC1CCC(Nc2nc(NCc3ccc(-c4cccs4)cc3)c3ncn(C4CCCC4)c3n2)CC1 (centres undefined)', 6.54),
  ('NC1CCC(Nc2nc(NCc3cc(Cl)ccc3O)c3ncn(C4CCCC4)c3n2)CC1 (centres undefined)', 6.37),
  ('NC1CCC(Nc2nc(NCc3ccc(-n4cccn4)cc3)c3ncn(C4CCCC4)c3n2)CC1 (centres undefined)', 6.86);
